Provide the recorded MFI at 25 nM for the entries that follow.
SUBJECT_OF_TEST: T1, human PD-1 expressed on cells (human, UniProt Q15116 25-288)
T1 construct: whole, on cells
METHOD_NOTES: flow cytometry, activated PBMC donor FA
Quick reminder: number only, in MFI, skip the unit.

(Q) Returns the measured MFI at 25 nM for the input binder. Input: 38A6 (antibody, V domains shown, also called 780_46) VH: EVQLLESGGGLVQPGGSLRLSCAASGFTFSSYWMSWVRQAPGKGLEWVSAISGSGGSTYYADSVKGRFTISRDNSKNTLYLQMNSLRAEDTAVYYCASSPLQWVDVWGQGTTVTVSS VL: DIQMTQSPSSLSASVGDRVTITCRASQDISRWLGWYQQKPGKAPKLLIYAASTLQSGVPSRFSGSGSGTDFTLTISSLQPEDFATYYCQQANSFPFTFGPGTKLEIK
(A) 14.5

(Q) Need MFI at 25 nM, item 38B2 (antibody, V domains shown, 24H9 derivative, IgG; also called 780_54; hPD1 Ab (38B2)) VH: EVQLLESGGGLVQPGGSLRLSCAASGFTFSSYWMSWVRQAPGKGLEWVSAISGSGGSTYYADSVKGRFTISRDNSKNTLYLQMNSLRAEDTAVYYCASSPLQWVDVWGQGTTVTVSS VL: DIQMTQSPSSLSASVGDRVTITCRASESISSWLAWYQQKPGKAPKLLIYDASSLESGVPSRFSGSGSGTDFTLTISSLQPEDFATYYCQQGDSFPFTFGQGTKLEIK
(A) 16.6

(Q) Which MFI at 25 nM is reported for this binder? 33C4 (antibody, V domains shown, also called 780_39) VH: QVQLVQSGAEVKKPGSSVKVSCKASGGTFSSSVISWVRQAPGQGLEWMGGIIPIFGTANYAQKFQGRVTITADESTSTAYMELSSLRSEDTAVYYCAREGLGCSGGSCYSGYYYGMDVWGQGTTVTVSS VL: DIVMTQSPLSLPVTPGEPASISCRSSQSLLHSNGYNYLDWYLQKPGQSPQLLIYEASSLHTGVPDRFSGSGSGTDFTLKISRVEAEDVGVYYCMQGSHWPYTFGQGTKLEIK
(A) 17.6

(Q) Query (binder): 31B1 (antibody, V domains shown, also called 780_38; 33B1 and 31B2 (apparent misprints)) VH: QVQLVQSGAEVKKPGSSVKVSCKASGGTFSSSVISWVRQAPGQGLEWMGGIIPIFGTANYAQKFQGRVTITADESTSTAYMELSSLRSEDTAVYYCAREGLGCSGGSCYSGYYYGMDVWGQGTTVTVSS VL: DIVMTQSPLSLPVTPGEPASISCRSSQSLLHSNGYNYLDWYLQKPGQSPQLLIYEASSLHSGVPDRFSGSGSGTDFTLKISRVEAEDVGVYYCMQGTHWPYTFGQGTKVEIK ; field requested: MFI at 25 nM
(A) 18.4
